The values you see were collected from paper PMC3713324.

Attribute measured: Ki (µM)
Answer in µM, number only, no unit symbol.

[ask] Param readout= Ki; system= polyisoprenylated methylated protein methyl esterase (PMPMEase) (Sus scrofa); entry= COc1cc(/C=C/C(=O)CC(=O)/C=C/c2ccc(O)c(OC)c2)ccc1O ; returns value.
[reply] 0.31
